Each recorded value in this set is attributed to patent US6057359A.

# Test system: LEUKEMIA DAUDI-LINE
# Assay notes: Vitality/proliferation test (Tritium), leukemia Daudi-line
# Format: cell-based, human
# Stated conditions: 10^-5; controls 23'090 cpm
As shown below, each of these molecules has a reported Proliferation test % value.

Molecule	Proliferation test %
C=CCCCCCCCCC(=O)O[C@H]1C[C@@]2(O)[C@@H](OC(=O)c3ccccc3)[C@@H]3[C@]4(OC(C)=O)CO[C@@H]4C[C@H](OC(=O)CCCCCCCCC=C)[C@@]3(C)C(=O)[C@H](OC(C)=O)C(=C1C)C2(C)C [BACCATIN III-DI-UNDECENOATE, 7,13-Baccatin-III-diundecenoate]	41.7%
CC(=O)O[C@H]1C(=O)[C@@]2(C)[C@H]([C@H](OC(=O)c3ccccc3)[C@]3(O)C[C@H](O)C(C)=C1C3(C)C)[C@]1(OC(C)=O)CO[C@@H]1C[C@@H]2O	61.4%
CCCCCCCCCCCC(=O)O[C@H]1C[C@@]2(O)[C@@H](OC(=O)c3ccccc3)[C@@H]3[C@]4(OC(C)=O)CO[C@@H]4C[C@H](OC(=O)CCCCCCCCCCC)[C@@]3(C)C(=O)[C@H](OC(C)=O)C(=C1C)C2(C)C [BACCATIN III-DI-LAURATE, 7,13-Dilauroylbaccatin-III]	38.3%
CC(=O)O[C@H]1C(=O)[C@@]2(C)[C@H]([C@H](OC(=O)c3ccccc3)[C@]3(O)C[C@H](OC(=O)[C@H](O)[C@@H](NC(=O)c4ccccc4)c4ccccc4)C(C)=C1C3(C)C)[C@]1(OC(C)=O)CO[C@@H]1C[C@@H]2O [TAXOL-A.S., Taxol (Paclitaxel), reference compound]	69.6%

----------
# Tested on: LEUKEMIA DAUDI-LINE
# Assay notes: Vitality/proliferation test (Tritium), leukemia Daudi-line
# Assay type: cell-based, human
# Stated conditions: 10^-4; controls 23'090 cpm

Molecule	Proliferation test cpm / cpm
C=CCCCCCCCCC(=O)O[C@H]1C[C@@]2(O)[C@@H](OC(=O)c3ccccc3)[C@@H]3[C@]4(OC(C)=O)CO[C@@H]4C[C@H](OC(=O)CCCCCCCCC=C)[C@@]3(C)C(=O)[C@H](OC(C)=O)C(=C1C)C2(C)C [BACCATIN III-DI-UNDECENOATE, 7,13-Baccatin-III-diundecenoate]	653
CC(=O)O[C@H]1C(=O)[C@@]2(C)[C@H]([C@H](OC(=O)c3ccccc3)[C@]3(O)C[C@H](O)C(C)=C1C3(C)C)[C@]1(OC(C)=O)CO[C@@H]1C[C@@H]2O [BACCATIN III-A.S., Baccatin-III]	795
CC(=O)O[C@H]1C(=O)[C@@]2(C)[C@H]([C@H](OC(=O)c3ccccc3)[C@]3(O)C[C@H](OC(=O)[C@H](O)[C@@H](NC(=O)c4ccccc4)c4ccccc4)C(C)=C1C3(C)C)[C@]1(OC(C)=O)CO[C@@H]1C[C@@H]2O [TAXOL-A.S., Taxol (Paclitaxel), reference compound]	672
CCCCCCCCCCCC(=O)O[C@H]1C[C@@]2(O)[C@@H](OC(=O)c3ccccc3)[C@@H]3[C@]4(OC(C)=O)CO[C@@H]4C[C@H](OC(=O)CCCCCCCCCCC)[C@@]3(C)C(=O)[C@H](OC(C)=O)C(=C1C)C2(C)C [BACCATIN III-DI-LAURATE, 7,13-Dilauroylbaccatin-III]	455
